Test system: 4T1 cells
Test: MTT assay, 72 h, 4T1
Type: cell-based
Details: Mus musculus, mean ± SD
Endpoint label: pIC50
Schema: pIC50 number; meaning minus log10 of the concentration expressed in molar units.

Query: Fill in pIC50 for record COc1ccc(N2C(=O)/C(=C/C=C/c3ccccc3)SC23C(=O)Nc2ccc(Cl)cc23)cc1 (stereo not shown)
Response: 4.17

Query: Give pIC50 for the following molecule: CC(C)(C)c1ccc(/C=C2\SC3(C(=O)Nc4ccc(F)cc43)N(Cc3ccccc3)C2=O)cc1 (stereo not shown)
Response: 4.33

Query: Tell us which pIC50 value is on record for CC(C)(C)c1ccc(/C=C2\SC3(C(=O)Nc4ccc(Cl)cc43)N(Cc3ccccc3)C2=O)cc1 (stereo not shown)
Response: 4.18

Query: Determine its reported pIC50: CC(C)(C)c1ccc(/C=C2\SC3(C(=O)Nc4ccc(Cl)cc43)N(c3ccc(Cl)cc3)C2=O)cc1 (stereo not shown)
Response: 4.33

Query: Give the reported pIC50 for this molecule. O=C1/C(=C/c2ccc(Cl)cc2)SC2(C(=O)Nc3ccc(Cl)cc32)N1c1ccc(Cl)cc1 (stereo not shown)
Response: 5.25

Query: Return value of pIC50 for input O=C1CSC2(C(=O)Nc3ccc(F)cc32)N1Cc1ccccc1 (stereo not shown) , no commentary.
Response: 4.04

Query: // fetch pIC50 given entry CCOc1ccc(/C=C2\SC3(C(=O)Nc4ccc(F)cc43)N(Cc3ccccc3)C2=O)cc1 (stereo not shown)
Response: 4.22

Query: Read the entry O=C1CSC2(C(=O)Nc3ccc(Br)cc32)N1c1ccc(Br)cc1 (stereo not shown) and write its reported pIC50.
Response: 4.36

Query: Check the records and state pIC50 for O=C1CSC2(C(=O)Nc3ccc(Cl)cc32)N1Cc1ccccc1 (stereo not shown)
Response: 4.02

Query: Report measured pIC50; entry is CC(C)(C)c1ccc(/C=C2\SC3(C(=O)Nc4ccc(Br)cc43)N(c3ccc(Br)cc3)C2=O)cc1 (stereo not shown)
Response: 4.16

Query: # return recorded pIC50 for input COc1cccc2c1C(=O)c1c(O)c3c(c(O)c1C2=O)C[C@@](O)(C(=O)CO)C[C@@H]3O[C@H]1C[C@H](N)[C@H](O)[C@H](C)O1 [Dox, Doxorubicin, reference compound]
Response: 6.14

Query: Give the value of pIC50 reported for the following: O=C1CSC2(C(=O)Nc3ccc(Cl)cc32)N1c1ccc(Cl)cc1 (stereo not shown)
Response: 4.14
